Tested on: HSkMC (human skeletal muscle cells)
ASSAY_INFO: cytotoxicity call (relative viability < 0.9)
RUN_CONDITIONS: 10 µM
About 1,500 (3.8%) of roughly 39,000 compounds were called active. The entries come from a sample that favours actives as a whole.
Outcome codes: active, inactive

> print(dat)
                                entry.smiles  assigned.category
 1  CCS(=O)(=O)Nc1ccc2c(c1)C(=O)N(C)C[C@@H](OC)[C@@H](C)CN(Cc1nccs1)[C@@H](C)CO2           inactive
 2  Cc1noc(C)c1NC(=O)N(C)C[C@@H]1OCCCC[C@H](C)Oc2ccc(NS(=O)(=O)c3ccc(F)cc3)cc2C(=O)N([C@H](C)CO)C[C@@H]1C           inactive
 3  C[C@H](CO)N1C[C@H](C)[C@@H](CN(C)Cc2ccc(Oc3ccccc3)cc2)Oc2ccc(NC(=O)Nc3ccccc3)cc2C1=O           inactive
 4  C[C@@H]1CN([C@@H](C)CO)C(=O)Cc2cc(NC(=O)Nc3ccc(C(F)(F)F)cc3)ccc2O[C@@H]1CN(C)Cc1ccccc1             active
 5  Cc1ccc(S(=O)(=O)Nc2ccc3c(c2)C(=O)N([C@H](C)CO)C[C@H](C)[C@@H](CN(C)Cc2ccncc2)OCCCC[C@H](C)O3)cc1           inactive
 6  C[C@H](CO)N1C[C@H](C)[C@H](CN(C)Cc2ccccc2)Oc2ccc(NC(=O)Nc3ccc(C(F)(F)F)cc3)cc2CC1=O             active
 7                           O=C(NO)c1cccnc1           inactive
 8  C[C@@H]1CN([C@@H](C)CO)C(=O)c2cc(NC(=O)Nc3ccccc3)ccc2O[C@H]1CN(C)Cc1ccc(Oc2ccccc2)cc1           inactive
 9  COCC#Cc1ccc2c(c1)O[C@H](CN(C)S(=O)(=O)c1ccc(OC)cc1)[C@H](C)CN([C@@H](C)CO)S2(=O)=O           inactive
10  O=C(C[C@H]1C[C@@H]2c3cc(NS(=O)(=O)c4ccc(F)cc4)ccc3O[C@@H]2[C@H](CO)O1)NC1CCCCC1           inactive
11  COc1ccc(NC(=O)Nc2ccc3c(c2)C(=O)N([C@H](C)CO)C[C@@H](C)[C@@H](CN(C)Cc2ccc(Oc4ccccc4)cc2)O3)cc1           inactive
12  Cc1ccc(S(=O)(=O)Nc2ccc3c(c2)C(=O)N([C@@H](C)CO)C[C@@H](C)[C@@H](CN(C)Cc2ccc(C(F)(F)F)cc2)OCCCC[C@@H](C)O3)cc1             active
13  COc1ccc(NC(=O)Nc2ccc3c(c2)C(=O)N([C@H](C)CO)C[C@H](C)[C@@H](CN(C)Cc2ccc(Oc4ccccc4)cc2)O3)cc1           inactive
14  C[C@@H]1CN([C@H](C)CO)C(=O)c2cc(NC(=O)Cn3cnnn3)ccc2O[C@H]1CN(C)CC1CCCCC1           inactive
15  C[C@@H]1CN([C@@H](C)CO)C(=O)Cc2cc(NS(=O)(=O)c3ccc(Cl)cc3)ccc2O[C@H]1CN(C)C(=O)Nc1ccc(C(F)(F)F)cc1           inactive
16  C=CCNC(=O)[C@H]1[C@@H]2C(=O)O[C@@H](c3ccccc3)[C@@H](c3ccccc3)N2[C@@H](c2ccc(O)cc2)[C@]12C(=O)Nc1ccc(C#CC3=CCCCC3)cc12           inactive
17  C[C@@H]1CN([C@H](C)CO)C(=O)c2cc(NC(=O)Cc3ccccc3)ccc2O[C@@H]1CN(C)Cc1ccc(Oc2ccccc2)cc1           inactive
18  O=C(C[C@@H]1C[C@H]2c3cc(NS(=O)(=O)c4ccc(F)cc4)ccc3O[C@H]2[C@@H](CO)O1)NC1CCCCC1           inactive
19  Cc1ccc(S(=O)(=O)Nc2ccc3c(c2)C(=O)N([C@H](C)CO)C[C@@H](C)[C@H](CN(C)Cc2ccc(C(F)(F)F)cc2)OCCCC[C@H](C)O3)cc1             active
20  C[C@@H]1CN([C@@H](C)CO)C(=O)c2cc(NC(=O)Cc3ccccc3)ccc2O[C@@H]1CN(C)Cc1ccc(Oc2ccccc2)cc1             active
21  Cc1ccc(S(=O)(=O)Nc2ccc3c(c2)C(=O)N([C@H](C)CO)C[C@@H](C)[C@H](CN(C)Cc2ccc(C(F)(F)F)cc2)OCCCC[C@@H](C)O3)cc1           inactive
22  C[C@H]1CN([C@@H](C)CO)C(=O)Cc2cc(NC(=O)Nc3ccc(C(F)(F)F)cc3)ccc2O[C@H]1CN(C)Cc1ccccc1             active
23  C[C@@H]1CN([C@@H](C)CO)C(=O)c2cc(NC(=O)Nc3ccc4c(c3)OCO4)ccc2O[C@H]1CN(C)Cc1ccc(Oc2ccccc2)cc1           inactive
24  Cc1ccc(S(=O)(=O)Nc2ccc3c(c2)C(=O)N([C@H](C)CO)C[C@H](C)[C@@H](CN(C)Cc2ccc(C(F)(F)F)cc2)OCCCC[C@@H](C)O3)cc1           inactive
25  Cc1ccc2[nH]c(=O)c(C3=NN(C(=O)CCC(=O)O)[C@H](c4ccc(Br)cc4)C3)c(-c3ccccc3)c2c1           inactive
26  C[C@@H]1CN([C@@H](C)CO)C(=O)Cc2cc(NC(=O)Nc3ccc(C(F)(F)F)cc3)ccc2O[C@H]1CN(C)Cc1ccccc1           inactive
27                Cn1cc(-c2ccno2)c(C(=O)O)n1           inactive
28  C[C@H](CO)N1C[C@H](C)[C@H](CN(C)Cc2ccc(Oc3ccccc3)cc2)Oc2ccc(NC(=O)Nc3ccc4c(c3)OCO4)cc2C1=O           inactive
